Entry source: patent US20200199206A1

Experimental Target: T1, LF-Biotin (B. anthracis, UniProt P15917 34-809)
T1 sequence: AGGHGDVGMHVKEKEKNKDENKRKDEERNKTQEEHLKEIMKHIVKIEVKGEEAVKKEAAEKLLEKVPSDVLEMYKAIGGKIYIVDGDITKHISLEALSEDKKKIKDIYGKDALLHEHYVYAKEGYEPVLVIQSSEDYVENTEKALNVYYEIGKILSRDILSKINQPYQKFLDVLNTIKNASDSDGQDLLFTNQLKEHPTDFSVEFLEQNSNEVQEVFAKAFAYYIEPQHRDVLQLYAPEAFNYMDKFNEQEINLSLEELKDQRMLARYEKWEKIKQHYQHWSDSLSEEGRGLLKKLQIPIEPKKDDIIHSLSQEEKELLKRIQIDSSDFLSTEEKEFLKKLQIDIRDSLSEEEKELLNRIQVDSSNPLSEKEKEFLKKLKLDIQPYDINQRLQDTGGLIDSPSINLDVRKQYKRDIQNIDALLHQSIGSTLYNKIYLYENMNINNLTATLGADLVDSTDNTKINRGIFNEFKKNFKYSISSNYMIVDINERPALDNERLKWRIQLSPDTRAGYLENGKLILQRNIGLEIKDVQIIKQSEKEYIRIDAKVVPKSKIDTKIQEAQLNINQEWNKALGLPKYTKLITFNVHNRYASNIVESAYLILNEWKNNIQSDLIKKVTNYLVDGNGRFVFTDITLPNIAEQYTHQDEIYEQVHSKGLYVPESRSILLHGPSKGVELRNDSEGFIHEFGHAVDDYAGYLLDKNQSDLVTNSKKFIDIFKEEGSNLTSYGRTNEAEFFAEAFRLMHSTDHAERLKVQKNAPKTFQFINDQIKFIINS
Assay Text: non-adsorbed VHH ELISA, IPTG-induced VHH-myc, LF-Biotin vs His-SNAP-Halo-Biotin
Label scheme for Induced ELISA ratio Signal LF/signal His-SNAP-Halo: lower than 6 ratio is false (0), 6 ratio and above is true (1).

Binder: clone 7 (VHH) VHH: EVQLQASGGGFVQPGGSLRLSCAASGTSYANSDMGWFRQAPGKEREFVSAISGGDSAYYYYADSVKGRFTISRDNSKNTVYLQMNSLRAEDTATYYCATQQIGMREYYWGQGTQVTVSS
Category Label: true (1)
--
Binder: clone 3 (VHH) VHH: EVQLQASGGGFVQPGGSLRLSCAASGSTSYSYNMGWFRQAPGKEREFVSAISRDGDWKNYYADSVKGRFTISRDNSKNTVYLQMNSLRAEDTATYYCAFEEHWMTPLYWGQGTQVTVSS
Category Label: true (1)
--
Binder: clone 4 (VHH) VHH: EVQLQASGGGFVQPGGSLRLSCAASGRTFRIDTMGWFRQAPGKEREFVSAISFDTSHENYYADSVKGRFTISRDNSKNTVYLQMNSLRAEDTATYYCAPESMWFSIEYWGQGTQVTVSS
Category Label: true (1)
--
Binder: clone 2 (VHH) VHH: EVQLQASGGGFVQPGGSLRLSCAASGFFSNIEDMGWFRQAPGKEREFVSAISGYENESPYYADSVKGRFTISRDNSKNTVYLQMNSLRAEDTATYYCAAQSYHGKKGMTEYWGQGTQVTVSS
Category Label: false (0)
--
Binder: clone 9 (VHH) VHH: EVQLQASGGGFVQPGGSLRLSCAASGSYSAETDMGWFRQAPGKEREFVSAISGDPTTTTYYADSVKGRFTISRDNSKNTVYLQMNSLRAEDTATYYCAYQRLDNFEIYWGQGTQVTVSS
Category Label: false (0)

Kindly review the next binder as well.
Please indicate if the recorded Induced ELISA ratio Signal LF/signal His-SNAP-Halo for clone 8 (VHH) VHH: EVQLQASGGGFVQPGGSLRLSCAASGSTSSHYDMGWFRQAPGKEREFVSAISYNHDHDTYYADSVKGRFTISRDNSKNTVYLQMNSLRAEDTATYYCAGATATTDGGYQEYWGQGTQVTVSS meets or exceeds 6 ratio.
false (0)
